Tested on: panel of cancer cell lines
Assay: Cell viability (CellTiter-Glo) dose-response across cancer cell line panel;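 note: after 72 h compound incubation with CellTiter-Glo ATP readout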
Type: cell-based, human
Conditions: Homo sapiens, MCAS
outcome_measure: EC50 (nM)
The figure you give is taken to be in nM; do not add the unit.

Task item: Sample `CC(C)C[C@H](NC(=O)[C@H](Cc1ccccc1)NC(=O)c1cnccn1)B(O)O` — what was its EC50?
Reply: 8.1

Task item: What does the record list as EC50 for `COCc1ccccc1NCc1ccc([C@H]2[C@@H](O)CCCc3cncn32)c(-c2ccccc2Cl)c1` ?
Reply: 692

Task item: Returns the measured EC50 for the input molecule. Input: `NS(=O)(=O)OC[C@@H]1C[C@@H](n2ccc3c(N[C@H]4CCc5ccccc54)ncnc32)C[C@@H]1O`
Reply: 529

Ref: paper PMC5078989
